experimentalTarget: T1, Mcl-1, Q07820
T1 chain: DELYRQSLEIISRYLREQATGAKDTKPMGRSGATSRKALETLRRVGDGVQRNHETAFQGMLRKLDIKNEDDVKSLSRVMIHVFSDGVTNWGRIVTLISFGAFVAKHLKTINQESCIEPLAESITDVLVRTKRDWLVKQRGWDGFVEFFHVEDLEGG
assayProtocol: peptide SPOT array, c-Myc-tagged receptor at 1 uM or 100 nM, anti-c-Myc-Cy3
assayReadout: SPOT signal as a fraction of Bim BH3's signal on the same receptor and array
Please reply with the value in numeric form only.

[
  {
    "binder": "NDDTPWIARTLDNLADELTAILSAPA [GBP6]",
    "reportedResult": 0.04
  },
  {
    "binder": "AICIEEIGVWDKMYSDAFLNDSYLKY [STAG1]",
    "reportedResult": 0.03
  }
]

Annotate the binder CALIAGATLHVAWLGDSQVILVQQGQ [PPM1F] with its measured SPOT signal as a fraction of Bim BH3's signal on the same receptor and array.
0.01

Query SPOT signal as a fraction of Bim BH3's signal on the same receptor and array for MRSQLGKATALAIMGDKLWWADQVSE [LRP1]
0.28

Please look at this binder and report its SPOT signal as a fraction of Bim BH3's signal on the same receptor and array: TGKDRLTAGLINIVSFDLLSKLEKQL [SMARCAL1]
0.02

// Input: RVSWNITGTVDASSGDDGCVRLWKAN [SEH1L] . Output its SPOT signal as a fraction of Bim BH3's signal on the same receptor and array only.
0.03

Supply recorded SPOT signal as a fraction of Bim BH3's signal on the same receptor and array for DEHISYVATKDCHLGDQLEGVNTPRQ [EXOC5] here.
0.01
